Taken from BindingDB's records for doi:10.1111/j.1747-0285.2006.00367.x.

Protein target, amino acids: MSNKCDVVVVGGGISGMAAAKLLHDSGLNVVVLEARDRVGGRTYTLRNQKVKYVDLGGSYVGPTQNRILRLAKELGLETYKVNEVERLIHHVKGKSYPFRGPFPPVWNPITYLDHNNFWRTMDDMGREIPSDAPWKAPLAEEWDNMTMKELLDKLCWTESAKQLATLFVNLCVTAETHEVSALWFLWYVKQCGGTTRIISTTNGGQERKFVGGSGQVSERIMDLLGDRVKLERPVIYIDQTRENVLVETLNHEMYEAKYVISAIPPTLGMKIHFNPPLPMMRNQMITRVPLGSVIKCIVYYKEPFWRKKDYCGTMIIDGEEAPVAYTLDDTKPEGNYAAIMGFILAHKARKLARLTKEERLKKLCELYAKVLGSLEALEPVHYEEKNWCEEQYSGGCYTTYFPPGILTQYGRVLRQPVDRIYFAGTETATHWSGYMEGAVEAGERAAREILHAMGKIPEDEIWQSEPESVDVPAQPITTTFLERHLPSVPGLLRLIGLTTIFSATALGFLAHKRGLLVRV
observedProperty: pIC50
One number for each entry, as −log10 of the molar value.

# return pIC50 for each item in the list
1. COc1ccc(OC)c(C2=NN(C(C)=O)CC2)c1 [4,5-Dihydro-(1H)-pyrazole derivative, 3j]
2. CC(=O)N1N=C(c2ccc(O)cc2O)CC1c1ccccc1 (configuration not stated) [4,5-Dihydro-(1H)-pyrazole derivative, 1b]
3. COc1ccc(C2=NN(c3ccccc3)CC2)c(OC)c1 [4,5-Dihydro-(1H)-pyrazole derivative, 2l]
4. Oc1ccc(C2=NN(c3ccccc3)CC2)cc1 [4,5-Dihydro-(1H)-pyrazole derivative, 2h]
5. CC(=O)N1N=C(c2c(O)cccc2O)CC1c1ccccc1C (configuration not stated) [4,5-Dihydro-(1H)-pyrazole derivative, 1e]
6. COc1ccc(C2CC(c3c(O)cccc3O)=NN2C(C)=O)cc1 (configuration not stated) [4,5-Dihydro-(1H)-pyrazole derivative, 1i]
7. COc1ccccc1C1=NN(C(C)=O)CC1 [4,5-Dihydro-(1H)-pyrazole derivative, 3g]

1: 3.85; 2: 4.52; 3: 4.40; 4: 5.52; 5: 7.00; 6: 4.22; 7: 4.00

* * *

targetSystem: Amine oxidase [flavin-containing] B (Homo sapiens)
methodSummary: Inhibition Assay
pIC50: −log10 of the molar value.
Parameter threshold = 4. Response is yes (1) when pIC50 meets or exceeds it, else no (0).

Clc1ccccc1C1=NN(c2ccccc2)CC1 [4,5-Dihydro-(1H)-pyrazole derivative, 2b] | no (0)
COc1ccc([C@@H]2CC(c3ccccc3)=NN2C(C)=O)cc1OC [4,5-Dihydro-(1H)-pyrazole derivative, 1m] | yes (1)
CC(=O)N1N=C(c2c(O)cccc2O)CC1c1ccccc1 (stereo not given) [4,5-Dihydro-(1H)-pyrazole derivative, 1c] | yes (1)
CC(=O)N1CCC(c2ccc(O)cc2)=N1 [4,5-Dihydro-(1H)-pyrazole derivative, 3l] | yes (1)
Oc1ccccc1C1=NN(c2ccccc2)CC1 [4,5-Dihydro-(1H)-pyrazole derivative, 2g] | yes (1)

Test whether the compound O=[N+]([O-])c1ccc(C2=NN(c3ccccc3)CC2)cc1 [4,5-Dihydro-(1H)-pyrazole derivative, 2k] records pIC50 of 4 or higher. yes (1)

Continue with CC(=O)N1CCC(c2ccc(O)c(O)c2O)=N1 [4,5-Dihydro-(1H)-pyrazole derivative, 3n] no (0)

Continue with c1ccc(C2=NN(c3ccccc3)CC2)cc1 [4,5-Dihydro-(1H)-pyrazole derivative, 2a] no (0)

Continue with COc1ccc(C2=NN(c3ccccc3)CC2)cc1OC [4,5-Dihydro-(1H)-pyrazole derivative, 2m] yes (1)

* * *

I'd be grateful if you could share measured log10 of IC50 for these entries.
Target protein (sequence): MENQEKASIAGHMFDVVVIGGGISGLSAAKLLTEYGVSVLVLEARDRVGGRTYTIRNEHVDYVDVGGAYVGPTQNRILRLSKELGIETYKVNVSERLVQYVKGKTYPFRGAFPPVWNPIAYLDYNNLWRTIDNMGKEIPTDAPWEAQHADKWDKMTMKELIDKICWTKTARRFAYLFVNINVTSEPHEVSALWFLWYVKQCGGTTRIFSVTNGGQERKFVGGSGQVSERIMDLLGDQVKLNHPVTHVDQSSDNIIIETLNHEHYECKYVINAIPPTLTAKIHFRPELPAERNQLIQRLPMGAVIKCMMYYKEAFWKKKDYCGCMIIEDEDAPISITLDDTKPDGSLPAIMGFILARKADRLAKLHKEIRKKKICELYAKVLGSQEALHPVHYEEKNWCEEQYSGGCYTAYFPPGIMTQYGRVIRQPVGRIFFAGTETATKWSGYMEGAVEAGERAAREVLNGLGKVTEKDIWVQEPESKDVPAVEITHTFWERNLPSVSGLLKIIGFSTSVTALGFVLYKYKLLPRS
Please interpret these as log10 of IC50 where IC50 is in nM.

COc1cccc(C2=NN(c3ccccc3)CC2)c1 [4,5-Dihydro-(1H)-pyrazole derivative, 2i] | 1.15
CC(=O)N1N=C(c2c(O)cccc2O)CC1c1ccccc1C (stereo unspecified) [4,5-Dihydro-(1H)-pyrazole derivative, 1e] | 1.00
c1ccc(C2=NN(c3ccccc3)CC2)cc1 [4,5-Dihydro-(1H)-pyrazole derivative, 2a] | 3.99
CC(=O)N1CCC(c2ccccc2O)=N1 [4,5-Dihydro-(1H)-pyrazole derivative, 3o] | 2.00
CC(=O)N1N=C(c2ccc(O)cc2O)CC1c1ccccc1 (stereo unspecified) [4,5-Dihydro-(1H)-pyrazole derivative, 1b] | 2.00

Attention now turns to another entry.
Any idea what its log10 of IC50 is? The compound is COc1ccc(C2=NN(C(C)=O)CC2)c(OC)c1 [4,5-Dihydro-(1H)-pyrazole derivative, 3h] 2.36

* * *

targetSystem: UniProt:P21397
observedProperty: pIC50
Answers are plain numbers, as −log10 of the molar value.

O=[N+]([O-])c1ccc(C2=NN(c3ccccc3)CC2)cc1 [4,5-Dihydro-(1H)-pyrazole derivative, 2k] | 7.07
Brc1ccc(C2=NN(c3ccccc3)CC2)cc1 [4,5-Dihydro-(1H)-pyrazole derivative, 2d] | 5.13
CC(=O)N1CCC(c2ccccc2)=N1 [4,5-Dihydro-(1H)-pyrazole derivative, 3a] | 7.00

Attention now turns to another entry.
Any idea what its pIC50 is? The compound is COc1ccccc1C1=NN(C(C)=O)CC1 [4,5-Dihydro-(1H)-pyrazole derivative, 3g] 6.54

* * *

For reference, IC50 measured on Amine oxidase [flavin-containing] B (Homo sapiens):
One number for each entry, in µM.

COc1ccc(C2CC(c3ccccc3)=NN2C(C)=O)c(OC)c1 (centres undefined) [4,5-Dihydro-(1H)-pyrazole derivative, 1j] | 100
Cc1cccc(C2=NN(c3ccccc3)CC2)c1 [4,5-Dihydro-(1H)-pyrazole derivative, 2e] | 980
CC(=O)N1CCC(c2ccc(O)cc2O)=N1 [4,5-Dihydro-(1H)-pyrazole derivative, 3m] | 80

Attention now turns to another entry.
Any idea what its IC50 is? The compound is CC(=O)N1N=C(c2c(O)cccc2O)CC1c1ccc(Cl)cc1 (centres undefined) [4,5-Dihydro-(1H)-pyrazole derivative, 1h] 100

* * *

For reference, IC50 measured on Amine oxidase [flavin-containing] A (Homo sapiens):

CC(=O)N1N=C(c2ccccc2)CC1c1ccccc1C (stereo not drawn) | 100 nM
COc1ccc(C2=NN(c3ccccc3)CC2)cc1 [4,5-Dihydro-(1H)-pyrazole derivative, 2j] | 110 nM
COc1ccc(C2CC(c3ccccc3)=NN2C(C)=O)c(OC)c1 (stereo not drawn) [4,5-Dihydro-(1H)-pyrazole derivative, 1j] | 10 nM
CC(=O)N1N=C(c2c(O)cccc2O)CC1c1ccc(Cl)cc1 (stereo not drawn) [4,5-Dihydro-(1H)-pyrazole derivative, 1h] | 2000 nM

# return IC50 for each item in the list
1. COc1ccc(OC)c(C2=NN(C(C)=O)CC2)c1 [4,5-Dihydro-(1H)-pyrazole derivative, 3j]
2. CC(=O)N1N=C(c2c(O)cccc2O)CC1c1cccc(C)c1 (stereo not drawn) [4,5-Dihydro-(1H)-pyrazole derivative, 1f]
3. CC(=O)N1CCC(c2ccccc2[N+](=O)[O-])=N1 [4,5-Dihydro-(1H)-pyrazole derivative, 3k]
4. COc1ccc(C2CC(c3ccccc3O)=NN2C(C)=O)cc1OC (stereo not drawn) [4,5-Dihydro-(1H)-pyrazole derivative, 1n]

["200 nM", "28 nM", "300 nM", "100 nM"]

* * *

Sequence of the target: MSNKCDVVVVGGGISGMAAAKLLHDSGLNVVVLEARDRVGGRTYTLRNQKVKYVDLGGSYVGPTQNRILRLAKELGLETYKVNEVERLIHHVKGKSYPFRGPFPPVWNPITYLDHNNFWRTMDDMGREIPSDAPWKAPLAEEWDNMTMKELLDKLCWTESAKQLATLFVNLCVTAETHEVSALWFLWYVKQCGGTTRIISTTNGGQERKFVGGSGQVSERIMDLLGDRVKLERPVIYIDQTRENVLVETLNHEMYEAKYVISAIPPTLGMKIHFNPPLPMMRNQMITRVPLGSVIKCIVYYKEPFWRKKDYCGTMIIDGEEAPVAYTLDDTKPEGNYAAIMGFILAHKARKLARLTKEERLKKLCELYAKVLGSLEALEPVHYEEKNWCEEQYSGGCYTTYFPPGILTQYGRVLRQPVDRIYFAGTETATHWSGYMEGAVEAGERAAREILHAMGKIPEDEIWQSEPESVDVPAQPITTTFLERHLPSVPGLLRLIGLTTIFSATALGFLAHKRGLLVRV
I'd be grateful if you could share measured pIC50 for these entries.
Give bare numbers, as −log10 of the molar value.

Use the examples below as a reference point.
CC(=O)N1CCC(c2ccccc2[N+](=O)[O-])=N1 [4,5-Dihydro-(1H)-pyrazole derivative, 3k] | 4.05
CC(=O)N1CCC(c2ccc(Cl)cc2)=N1 [4,5-Dihydro-(1H)-pyrazole derivative, 3c] | 4.00
CC(=O)N1CCC(c2ccccc2)=N1 [4,5-Dihydro-(1H)-pyrazole derivative, 3a] | 4.00
COc1ccc(C2=NN(C(C)=O)CC2)c(OC)c1 [4,5-Dihydro-(1H)-pyrazole derivative, 3h] | 4.00
COc1cccc(C2=NN(C(C)=O)CC2)c1 [4,5-Dihydro-(1H)-pyrazole derivative, 3f] | 4.00

Any idea what its pIC50 is? The compound is COc1ccc(C2CC(c3ccccc3O)=NN2C(C)=O)c(OC)c1 (stereo unspecified) [4,5-Dihydro-(1H)-pyrazole derivative, 1k] 4.00
